Would you kindly list IC50 for each of these molecules?
Target: recombinant human Myt1 (full length PKMYT1) (Homo sapiens)
Sequence (Q99640 whole entry): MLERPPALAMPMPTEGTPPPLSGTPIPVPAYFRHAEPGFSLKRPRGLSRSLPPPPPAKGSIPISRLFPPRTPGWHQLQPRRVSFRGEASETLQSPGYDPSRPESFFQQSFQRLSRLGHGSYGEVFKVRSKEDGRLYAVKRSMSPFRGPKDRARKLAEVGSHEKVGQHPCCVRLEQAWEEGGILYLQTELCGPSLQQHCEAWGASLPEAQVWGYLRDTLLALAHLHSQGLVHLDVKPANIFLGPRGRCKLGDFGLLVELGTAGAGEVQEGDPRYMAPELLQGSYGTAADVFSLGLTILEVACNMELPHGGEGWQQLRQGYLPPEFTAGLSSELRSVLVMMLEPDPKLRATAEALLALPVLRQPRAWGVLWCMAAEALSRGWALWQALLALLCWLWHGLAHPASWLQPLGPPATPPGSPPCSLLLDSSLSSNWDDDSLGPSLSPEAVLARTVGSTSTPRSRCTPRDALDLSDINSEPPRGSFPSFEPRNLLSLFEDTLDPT
Test: ADP-Glo assay (Myt1 kinase activity)
Give just the number in nM; leave the unit off.

Report measured IC50 on recombinant human Myt1 (full length PKMYT1) (Homo sapiens); entry: CCc1cnc(C)c2[nH]c(=O)c(N)c(-c3ccc(F)c4[nH]ncc34)c12 [Example 178]
18.1

Report measured IC50 on recombinant human Myt1 (full length PKMYT1) (Homo sapiens); entry: COc1nc(C2CC2)cc2[nH]c(=O)c(N)c(-c3ccc(F)c4[nH]ncc34)c12 [Example 169]
13.4

Report measured IC50 on recombinant human Myt1 (full length PKMYT1) (Homo sapiens); entry: Cc1ncc(OCC(F)F)c2c(-c3ccc(F)c4[nH]ncc34)c(N)c(=O)[nH]c12 [Example 186]
15.8

Report measured IC50 on recombinant human Myt1 (full length PKMYT1) (Homo sapiens); entry: Cc1cc2[nH]c(=O)c(N)c(-c3ccc(F)c4[nH]ncc34)c2nc1-c1ccccn1 [Example 155]
14.7

Report measured IC50 on recombinant human Myt1 (full length PKMYT1) (Homo sapiens); entry: Cc1cc2[nH]c(=O)c(N)c(-c3ccc(F)c4[nH]ncc34)c2nc1N1CC2(CN(C)C2)C1 [Example 27]
21.2

Report measured IC50 on recombinant human Myt1 (full length PKMYT1) (Homo sapiens); entry: COc1cnc(C)c2[nH]c(=O)c(N)c(-c3ccc(F)c4[nH]ncc34)c12 [Example 173]
15.2

Report measured IC50 on recombinant human Myt1 (full length PKMYT1) (Homo sapiens); entry: Cc1ncc(Cl)c2c(-c3ccc(F)c4[nH]ncc34)c(N)c(=O)[nH]c12 [Example 176]
14.3

Report measured IC50 on recombinant human Myt1 (full length PKMYT1) (Homo sapiens); entry: COc1cnc2c(-c3ccc(F)c4[nH]ncc34)c(N)c(=O)[nH]c2c1 [Example 6]
22.6

Report measured IC50 on recombinant human Myt1 (full length PKMYT1) (Homo sapiens); entry: Cc1cc2[nH]c(=O)c(N)c(-c3ccc(F)c4[nH]ncc34)c2nc1-c1cscn1 [Example 152]
13.8

Report measured IC50 on recombinant human Myt1 (full length PKMYT1) (Homo sapiens); entry: Nc1c(-c2ccc(F)c3[nH]ncc23)c2c(OC(F)F)nc(C3CC3)cc2[nH]c1=O [Example 168]
11.2
